Each item that follows carries a reported cell viability.
# System: P12-Ichikawa
# Experiment notes: cell viability relative to DMSO control; higher = less cytotoxic
# Condition context: RPMI 5 mM glucose + 10% dialyzed FBS; 48 h; 0.569 µM
Write the value in % as a bare number.

Solved cases below.
Challenge: For the compound C[C@H]1CCC/C=C/C2C[C@H](O)C[C@H]2[C@H](O)/C=C/C(=O)O1 (stereo not given in full) , give its measured cell viability value.
Response given: 6.09

Challenge: For the compound C[Se]CCC(N)C(=O)O (stereo not given) , give its measured cell viability value.
Response given: 74.9

More entries:
Challenge: For the compound COc1cc2c(NC3CCN(C(C)C)CC3)nc(C3CCCCC3)nc2cc1OCCCN1CCCC1 , give its measured cell viability value.
Response given: 122

Challenge: For the compound O=C(c1ccc(F)cc1)C1CCN(CCn2c(=O)[nH]c3ccccc3c2=O)CC1 , give its measured cell viability value.
Response given: 140

Challenge: For the compound CN[C@@H](C)C(=O)N[C@H]1CCCC[C@H]2CC[C@@H](C(=O)N[C@@H](c3ccccc3)c3cn(CCCCc4ccc(CCCCn5cc([C@@H](NC(=O)[C@@H]6CC[C@@H]7CCCC[C@H](NC(=O)[C@H](C)NC)C(=O)N76)c6ccccc6)nn5)cc4)nn3)N2C1=O , give its measured cell viability value.
Response given: 97.3

---

Each item that follows carries a reported cell viability.
# Test system: SEM cells
# Experiment notes: cell viability relative to DMSO control; higher = less cytotoxic
# Condition context: RPMI 5 mM glucose + 10% dialyzed FBS; 48 h; 0.00702 µM
Write the value in % as a bare number.

Solved cases below.
Challenge: For the compound O=C(NC1CC1)c1cccc(-c2ccc3c(NC(=O)C4CC4)n[nH]c3c2)c1 , give its measured cell viability value.
Response given: 104

Challenge: For the compound COc1ccc2cccc(CCNC(C)=O)c2c1 , give its measured cell viability value.
Response given: 101

Challenge: For the compound COc1ccc2cc(-c3[nH]c(-c4ccc([S+](C)[O-])cc4)nc3-c3ccncc3)ccc2c1 (stereo not given) , give its measured cell viability value.
Response given: 102

Challenge: For the compound NC\1=N\C(=O)N(\C=N1)[C@H]2C[C@H](O)[C@@H](CO)O2 , give its measured cell viability value.
Response given: 81

Consider now this further compound.
Challenge: For the compound CCCn1c(=O)c2[nH]c(C34CC5CC3C[C@@H](C5)C4)nc2n(CCC)c1=O , give its measured cell viability value.
Response given: 116

---

# Tested on: SEM cells
# Experiment notes: cell viability relative to DMSO control; higher = less cytotoxic
# Condition context: HPLM + 10% dialyzed FBS; 48 h; 0.0632 µM
Readout type: cell viability (%)
Write the value in % as a bare number.

Solved cases below.
Challenge: For the compound CCN1CCN(Cc2ccc(-c3cc4c(N[C@H](C)c5ccccc5)ncnc4[nH]3)cc2)CC1 , give its measured cell viability value.
Response given: 116

Challenge: For the compound CN1C(=O)COc2c(C(=O)NC3CN4CCC3CC4)cc(Cl)cc21 (stereo not given) , give its measured cell viability value.
Response given: 116

Challenge: For the compound OC1=C(C=CC=C1)C2=CC=C(C=C2)C3=CSC4=C3C(=C(/C#N)C(=O)N4)/O , give its measured cell viability value.
Response given: 120

Challenge: For the compound CCN(CC)CCOC1=CC=C(NC2=NC=C3\C=C(/C(=O)N(C)C3=N2)C4=C(Cl)C=CC=C4Cl)C=C1 , give its measured cell viability value.
Response given: 67.9

More entries:
Challenge: For the compound C[C@H]1[C@@H](CC(C[C@H]2O[C@@H]3O[C@]4(C)CC[C@H]5[C@H](C)CC[C@@H]([C@H]2C)[C@@]35OO4)C[S+](=O)([O-])c2ccc(COC(=O)N(C)C)cc2)O[C@@H]2O[C@]3(C)CC[C@H]4[C@H](C)CC[C@@H]1[C@@]24OO3 , give its measured cell viability value.
Response given: 102

Challenge: For the compound NC/1=N/C(=O)N(/C=C1)[C@H]2CC[C@@H](CO)O2 , give its measured cell viability value.
Response given: 101

Challenge: For the compound C[C@H]1CCC/C=C/C2C[C@H](O)C[C@H]2[C@H](O)/C=C/C(=O)O1 (stereo not given in full) , give its measured cell viability value.
Response given: 5.21

Challenge: For the compound Cn1c(=O)c2c(ncn2CC(O)CO)n(C)c1=O (stereo not given) , give its measured cell viability value.
Response given: 104

Challenge: For the compound CC1=C(/C=C/C(C)=C/C=C/C(C)=C/C(=O)Nc2ccc(O)cc2)C(C)(C)CCC1 , give its measured cell viability value.
Response given: 86.9

Challenge: For the compound COc1cc2nc(-c3ccc(N4CCN(C)CC4)cc3)nc(NCCN3CCOCC3)c2cc1OC , give its measured cell viability value.
Response given: 112

Challenge: For the compound COc1cc(N2CCC(N3CCN(C)CC3)CC2)ccc1Nc1ncnc(Nc2ccccc2[S+](=O)([O-])C(C)C)n1 , give its measured cell viability value.
Response given: 67.4

Challenge: For the compound CNC(=O)c1cc(Oc2ccc(NC(=O)Nc3cc(C(C)(C)C)nn3-c3ccc4ncccc4c3)c(F)c2)ccn1 , give its measured cell viability value.
Response given: 116

Challenge: For the compound CN(C)c1ccc(C(=O)NCCCCCCC(=O)NO)cc1 , give its measured cell viability value.
Response given: 97.7

Challenge: For the compound CCC1=C(C)CN(C(=O)NCCc2ccc(S(=O)(=O)NC(=O)N[C@H]3CC[C@H](C)CC3)cc2)C1=O , give its measured cell viability value.
Response given: 86.4

Challenge: For the compound CC1=C(C)C2=C(S1)[N]3C(=NN=C3[C@H](CC(=O)OC(C)(C)C)/N=C2/C4=CC=C(Cl)C=C4)C , give its measured cell viability value.
Response given: 104
